test system: MS2 coat protein; assay: apparent KD of MS2 coat protein; designed switch direction (-1 OFF switch, 1 ON switch): -1; higher = weaker reporter binding; settings: Eterna round: R95; input ligand: none
Response key: true (1) means apparent KD of MS2 coat protein >= 70 nM; false (0) means apparent KD of MS2 coat protein < 70 nM.

Hello, I need to know if AGUAACUAUCACGAAAGUGAUAGUUACAAAAGCAGUGAAACAUGAGGAUCACCCAUGUCCUCAUUUGCUCGUCUUAU [Sensor 3 - 24] (puzzle: Sensor v3, turn-off variant 2) has measured apparent KD of MS2 coat protein not below 70 nM. Thanks! false (0)

Hello, I need to know if CUGAGGUAGCGGUCCUAUGACAUGAGGAUCACCCAUGUACCUUGCUUUGAGCUAUUUGCUCGUCUUAUGAUUCUCGG [Mat - Sensor v3 - turn-off var 1 - JL Mod - D40] (puzzle: Sensor v3, turn-off variant 1) has measured apparent KD of MS2 coat protein not below 70 nM. Thanks! true (1)

Hello, I need to know if CUGGUCCGAGGAUAUAUGAUGUGAAACAUGAGGAUCACCCAUGUAAUAUUAUGGAGGUAAAUAGAAGGCGGACUAG [Mat - Exclusion 5 - JL mod - D35] (puzzle: Exclusion 5) has measured apparent KD of MS2 coat protein not below 70 nM. Thanks! false (0)

Hello, I need to know if UUUAAUUUUUUUUUUUUACAAGCUUUUUGCUCGUCUUAUACAUGAGGAUCACCCAUGUGAAUGGGAAGUAAAUUAUC [JMF 51] (puzzle: Sensor v3, turn-off variant 2) has measured apparent KD of MS2 coat protein not below 70 nM. Thanks! true (1)

Hello, I need to know if AAUUCUAGGGUCAGACGCACAAGCUUUUUGUUCGUUUUAACAUGAGGAUCACCCAUGUCUAGUGGAUCUGAUCGGGC [JL ViennaUCT Isreen mod 9] (puzzle: Sensor v3, turn-off variant 2) has measured apparent KD of MS2 coat protein not below 70 nM. Thanks! false (0)

====

tested on: MS2 coat protein; assay: apparent KD of MS2 coat protein, switch OFF state (with FMN for OFF switches, without FMN for ON switches); designed switch direction (-1 OFF switch, 1 ON switch): 1; higher = weaker reporter binding; conditions: FMN input: 0 or 200 uM; Eterna round: R93 (includes R88 designs)
Exercise: state measured apparent KD of MS2 coat protein for each of the sequences provided.
Answer format: numeric, nM implied, no suffix.

Give reported apparent KD of MS2 coat protein value for AGGAAACAUGAGGAUCACCCAUGUAAAAGGUGGGUAGGAUAUGCGAAAAGAAAAAGAAAAGCAGAAGGACCAAGAA [62%, Something completely different, 1] 108

Give reported apparent KD of MS2 coat protein value for AACAUACAUGAGGAUCACCCAUGUUCCGGCAGGUCAGGAUAUUCAUCGAAAGUGUUAUAAGAAGAAGGGACAUAAA [JR_SS001_Sub011] 48.9

Give reported apparent KD of MS2 coat protein value for AGGAGACAUGAGGAUCACCCAUGUGCACGGUGAAGAGGAUAUGUGCGUGGAGAGACACGGACAGAAGGCUUAAGAA [JR_SameState1_Sub5] 38.9

Give reported apparent KD of MS2 coat protein value for AUAAUAUUAAGCAAGGAUAUACUAAAGUAAACAUGAGGAUCACCCAUGUAAAAAAAAAAACUCAUGUAGAAGGUGCAUAAAUAAA [moonwalk 10] 33.1

Give reported apparent KD of MS2 coat protein value for AAUACAAAUAGUCAGGAUAUCAAAAAUAAGACAUGAGGAUCACCCAUGUAAUAAGUAAAAGUAAAUGAGAAGGGACAGGGUGAAA [JR_SS002_Sub401] 59.2

Give reported apparent KD of MS2 coat protein value for AGGAAACAUGAGGAUCACCCAUGUAAAGAUGGGCGAGGAUAUCGAAAGAAAAGAAAGAAACGAGAAGGUGCAAAAG [59%, Flamingo, 1] 251
